Origin of values: paper PMC9396876

target: GRK3 (G protein-coupled receptor kinase 3) (Homo sapiens, UniProt P35626); construct: recombinant GRK3 protein; assay: in vitro kinase assay (Z-LYTE; ADP-Glo)
Sequence (P35626 whole entry): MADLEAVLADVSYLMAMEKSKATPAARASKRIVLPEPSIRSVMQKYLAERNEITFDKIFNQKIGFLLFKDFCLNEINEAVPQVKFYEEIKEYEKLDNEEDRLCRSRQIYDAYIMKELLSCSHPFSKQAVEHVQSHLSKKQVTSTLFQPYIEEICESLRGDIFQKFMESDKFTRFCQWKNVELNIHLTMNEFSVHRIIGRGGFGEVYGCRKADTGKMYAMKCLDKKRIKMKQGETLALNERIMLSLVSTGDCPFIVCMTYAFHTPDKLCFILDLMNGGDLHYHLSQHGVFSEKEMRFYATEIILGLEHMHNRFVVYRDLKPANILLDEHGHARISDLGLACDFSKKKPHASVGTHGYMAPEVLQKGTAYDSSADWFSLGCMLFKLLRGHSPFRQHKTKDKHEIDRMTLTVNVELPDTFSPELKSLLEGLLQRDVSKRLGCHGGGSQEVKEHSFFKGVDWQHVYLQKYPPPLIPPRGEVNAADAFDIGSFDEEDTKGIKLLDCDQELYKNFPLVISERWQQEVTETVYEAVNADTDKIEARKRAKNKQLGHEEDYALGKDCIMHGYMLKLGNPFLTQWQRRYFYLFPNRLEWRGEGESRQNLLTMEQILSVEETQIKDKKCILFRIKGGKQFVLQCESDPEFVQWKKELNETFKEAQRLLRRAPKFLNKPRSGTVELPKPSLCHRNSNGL
recorded metric: IC50 (nM)

[[record]]
smiles_input = "Cn1cc(-c2[nH]c3cc(NC(=O)[C@H](N)C4CCCCC4)cc4c3c2C=NNC4=O)cn1"
measurement = 82

